Settings: in n-propanol, 298.35 K
propertyLabel: solubility (mole fraction)

Query: Any idea what its solubility (mole fraction) is? The molecule is "O=C(O)c1cccc(C(=O)O)c1"
Response: 0.0032

---

Details: in sec-butanol, 313.25 K
propertyLabel: solubility (mole fraction)
Enter a number only.

Query: What measured solubility (mole fraction) goes with "O=C(O)c1cccc(C(=O)O)c1" ?
Response: 0.00346

---

Conditions: in n-propanol, 278.15 K
propertyLabel: solubility (mole fraction)

Query: Reported solubility (mole fraction) for "O=C(O)c1cccc(C(=O)O)c1" : what is it?
Response: 0.00169

---

Settings: in n-hexanol, 317.67 K
propertyLabel: solubility (mole fraction)
Returns: the value as a bare number; no unit string appended.

Query: Look at this compound and give its reported solubility (mole fraction). "O=C(O)c1cccc(C(=O)O)c1"
Response: 0.00477

---

Settings: in n-butanol, 298.06 K
propertyLabel: solubility (mole fraction)
Just the number, please, no unit after it.

Query: Field request: solubility (mole fraction) | item: "O=C(O)c1cccc(C(=O)O)c1"
Response: 0.00315

---

Details: in sec-butanol, 298.25 K
propertyLabel: solubility (mole fraction)
Give a plain numeric answer without units written out.

Query: Consider the molecule shown here: "O=C(O)c1cccc(C(=O)O)c1" What is its recorded solubility (mole fraction)?
Response: 0.00235

---

Conditions: in n-propanol, 304.05 K
propertyLabel: solubility (mole fraction)
Respond numerically, and do not add a unit to the figure.

Query: Using the record for "O=C(O)c1cccc(C(=O)O)c1" , report its solubility (mole fraction).
Response: 0.00377

---

Settings: in n-butanol, 303.66 K
propertyLabel: solubility (mole fraction)
Respond using a number only.

Query: What solubility (mole fraction) value was documented for this compound, "O=C(O)c1cccc(C(=O)O)c1" ?
Response: 0.00366

---

Conditions: in n-hexanol, 320.84 K
propertyLabel: solubility (mole fraction)

Query: Bench note: what solubility (mole fraction) did "O=C(O)c1cccc(C(=O)O)c1" show?
Response: 0.00544

---

Details: in n-hexanol, 312.7 K
propertyLabel: solubility (mole fraction)
Kindly provide the number alone.

Query: # input compound: "O=C(O)c1cccc(C(=O)O)c1" ; wanted: its solubility (mole fraction)
Response: 0.00424

---

Settings: in n-butanol, 308.36 K
propertyLabel: solubility (mole fraction)
Give only the figure.

Query: Data request, read-out solubility (mole fraction), for "O=C(O)c1cccc(C(=O)O)c1"
Response: 0.00386

---

Settings: in n-butanol, 278.06 K
propertyLabel: solubility (mole fraction)
Please give only the number in your answer, with no unit.

Query: Fill in the blank: the reported solubility (mole fraction) of "O=C(O)c1cccc(C(=O)O)c1" is ____.
Response: 0.00187

---

Details: in isopropanol, 308.25 K
propertyLabel: solubility (mole fraction)
In your answer, state the number alone without any accompanying words.

Query: May I ask what solubility (mole fraction) has been recorded for "O=C(O)c1cccc(C(=O)O)c1" ?
Response: 0.00535

---

Conditions: in n-pentanol, 308.05 K
propertyLabel: solubility (mole fraction)
// return a plain number; no unit text

Query: Name the reported solubility (mole fraction) value associated with the compound "O=C(O)c1cccc(C(=O)O)c1"
Response: 0.00532

---

Conditions: in isopropanol, 283.25 K
propertyLabel: solubility (mole fraction)
Just the number.

Query: Consider the molecule shown here: "O=C(O)c1cccc(C(=O)O)c1" What is its recorded solubility (mole fraction)?
Response: 0.00255
